tested on: OCI-LY10 cells; assay: Inhibitory activity on OCI-LY10 cell proliferation (MTS); type: cell-based; details: Homo sapiens, 72 h or 168 h
endpoint: pIC50
Answers are plain numbers, as −log10 of the molar value.

The following compounds have reported results that may help.
[[record]]
compound = "NC(=O)c1nnc(N2CCCCC2)nc1Nc1ccc(N2CCN(CC3CCN(c4ccc(N5CCC(=O)NC5=O)c(F)c4)CC3)CC2)c(F)c1 [Compound 078]"
val = 9.15

[[record]]
compound = "NC(=O)c1nnc(N2CCCCC2)nc1Nc1ccc(N2CCC(CN3CCN(c4ccc(C5CCC(=O)NC5=O)cn4)CC3)CC2)c(F)c1 (stereo not drawn) [Compound 053]"
val = 8.76

[[record]]
compound = "NC(=O)c1nnc(N2CCCCC2)nc1Nc1ccc(C2CCN(CC3CCN(c4ccc5c(c4)C(=O)N(C4CCC(=O)NC4=O)C5=O)C3)CC2)cc1 (stereo not drawn) [Compound 001]"
val = 8.52


Field: pIC50. Fill in for each record below.
1. NC(=O)c1nnc(N2CCCCC2)nc1Nc1ccc(N2CCN(CC3CCN(c4ccc(N5CCC(=O)NC5=O)cc4F)CC3)CC2)c(F)c1 [Compound 086]
2. NC(=O)c1nnc(N2CCCCC2)nc1Nc1ccc(N2CCN(CC3CCN(c4ccc(C(=O)NC5CCC(=O)NC5=O)nc4)CC3)CC2)c(F)c1 (stereo not drawn) [Compound 085]
3. NC(=O)c1nnc(N2CCCCC2)nc1Nc1ccc(N2CCC(CN3CCN(c4ccc(N5CCC(=O)NC5=O)cc4)CC3)CC2)nc1 [Compound 048]

-- reply
1. 9.15
2. 9.24
3. 9.21

----------
System: Mino cells
Assay: Inhibitory activity on Mino cell proliferation (MTS)
Type: cell-based
Settings: Homo sapiens, 72 h or 168 h
Protocol: The anti-tumor efficacy of the compounds was tested by measuring their inhibitory effects on OCI-LY10 and Mino cell proliferation. OCI-LY10 and Mino cells were cultured in RPM-1640 medium containing […] fetal calf serum. OCI-LY10 and Mino cells were digested, inoculated in a 96-well plate at a cell concentration of 10000 cells/well, and incubated overnight at 37° C., 5% CO2. […] The absorbance at 490 nm and 650 nm were measured with a microplate reader. IC50 was calculated using GraphPad Prism 5.0.
endpoint: IC50 (nM)
Numbers only, in nM.

The following compounds have reported results that may help.
[[record]]
compound = "NC(=O)c1nnc(N2CCCCC2)nc1Nc1ccc(N2CCC(CN3CCN(c4ccc(N5CCC(=O)NC5=O)cc4)CC3)CC2)c(F)c1 [Compound 050]"
endpoint = "IC50"
readout_units = "nM"
val = 6.05

[[record]]
compound = "NC(=O)c1nnc(N2CCCCC2)nc1Nc1cnc(C2CCN(CC3CCN(c4ccc5c(c4)C(=O)N(C4CCC(=O)NC4=O)C5=O)C3)CC2)nc1 (stereo not drawn) [Compound 005]"
endpoint = "IC50"
readout_units = "nM"
val = 2.47

[[record]]
compound = "Cc1cc(N2CCC(CN3CCN(c4ccc(Nc5nc(N6CCOCC6)nnc5C(N)=O)cc4F)CC3)CC2)ccc1N1CCC(=O)NC1=O [Compound 098]"
endpoint = "IC50"
readout_units = "nM"
val = 3.11


Field: IC50. Fill in for each record below.
1. NC(=O)c1nnc(N2CCCCC2)nc1Nc1ccc(C2CCN(CC3CCN(c4ccc5c(c4)CCN(C4CCC(=O)NC4=O)C5=O)C3)CC2)cc1 (stereo not drawn) [Compound 013]
2. NC(=O)c1nnc(N2CCCCC2)nc1Nc1ccc(C2CCN(CC3CCN(c4ccc5c(c4)C(=O)N(C4CCC(=O)NC4=O)C5=O)C3)CC2)nn1 (stereo not drawn) [Compound 004]
3. NC(=O)c1nnc(N2CCCCC2)nc1Nc1ccc(N2CCC(CN3CCN(c4cc5c(cc4F)C(=O)N(C4CCC(=O)NC4=O)C5=O)CC3)CC2)c(F)c1 (stereo not drawn) [Compound 045]
4. NC(=O)c1nnc(N2CCCCC2)nc1Nc1ccc(N2CCC(CN3CCN(c4ccc5c(c4)C(=O)N(C4CCC(=O)NC4=O)C5=O)CC3)CC2)c(F)c1 (stereo not drawn) [Compound 044]
5. NC(=O)c1nnc(N2CCCCC2)nc1Nc1ccc(N2CCN(CC3CCN(c4ccc(-c5ccc(=O)[nH]n5)cc4C(F)(F)F)CC3)CC2)c(F)c1 [Compound 087]

-- reply
1. 3.37
2. 1.15
3. 3.91
4. 3.46
5. 4.31

-- ask Name the reported IC50 value associated with the compound NC(=O)c1nnc(N2CCOCC2)nc1Nc1ccc(C2CCN(CC3CCN(c4ccc5c(c4)C(=O)N(C4CCC(=O)NC4=O)C5=O)C3)CC2)cc1 (stereo not drawn) [Compound 019]
-- reply 2.13
